- target_system: AMPK
- test_protocol: AMPK activation, enzyme-linked immunosorbent assay
- test_parameters: EC50 for AMPK activation, ELISA
pEC50: −log10 of the molar value.
reported_property: pEC50

// CC(=O)c1ccc(OC2CCN(C(=O)c3ccc(C(=O)NC4CCN(Cc5ccc(C#N)cc5)CC4)nc3)CC2)cc1 : pEC50 value = > 6.30

// COc1ccc(C(=O)C2CCN(C(=O)c3cnc(C(=O)Nc4ccc(Oc5ccc(F)cc5)nc4)cn3)CC2)cc1 : pEC50 value = > 6.30

// COc1ccc(C(=O)C2CCN(C(=O)c3ccc(C(=O)NC4CCN(Cc5ccc(NC(C)=O)cc5)CC4)cn3)CC2)cc1 : pEC50 value = 5.30 to 6.00

// O=C(c1cccc(C(=O)N2CCN(Cc3ccc(F)cc3)CC2)n1)N1CCN(CCc2ccccc2)CC1 : pEC50 value = < 5.00

###

- target_system: AMPK
- test_protocol: AMPK activation, enzyme-linked immunosorbent assay
- test_parameters: EC50 for AMPK activation, ELISA
Provide the reported EC50 of each item.

// CC(=O)c1ccc(OC2CCN(C(=O)c3ccc(C(=O)Nc4ccc(Oc5ccc(F)cc5)nc4)nc3)CC2)cc1 : EC50 value = < 500 nM

// N#Cc1ccc(CN2CCC(NC(=O)c3ccc(C(=O)N4CCCCC4Cc4ccc(F)cc4)cn3)CC2)cc1 (centres unmarked) : EC50 value = 1000 to 5000 nM

// N#Cc1ccc(CN2CCC(NC(=O)c3ccc(C(=O)N4CCC(C(=O)c5ccc(C#N)cc5)CC4)cn3)CC2)cc1 : EC50 value = < 500 nM

// COc1ccc(C(=O)C2CCN(C(=O)c3ccc(C(=O)N(C)C4CCN(Cc5ccc(OC(F)(F)F)cc5)CC4)cn3)CC2)cc1 : EC50 value = < 500 nM

// N#Cc1ccc(CN2CCC(NC(=O)c3ccc(N4CCC(C(=O)c5ccc(Cl)cc5)CC4)cn3)CC2)cc1 : EC50 value = < 500 nM

// CS(=O)(=O)c1ccc(OC2CCN(C(=O)c3ccc(C(=O)NC4CCN(Cc5ccc(C#N)cc5)CC4)nc3)CC2)cc1 : EC50 value = < 500 nM

// O=C(NC1CCN(Cc2ccc(F)cc2)CC1)c1ccc(C(=O)N2CCC(Oc3cccc(NC(=O)C4CC4)c3)CC2)nc1 : EC50 value = 500 to 1000 nM

// CS(=O)(=O)c1ccc(OC2CCN(C(=O)c3ccc(C(=O)NC4CCN(Cc5ccc(C#N)cc5)CC4)nn3)CC2)cc1 : EC50 value = < 500 nM

// N#Cc1ccc(OC2CCN(C(=O)c3ccc(C(=O)N[C@H]4CC[C@@H](Oc5ccc(F)cc5)CC4)nc3)CC2)cc1 : EC50 value = < 500 nM

// N#Cc1ccc(CC2CCC(NC(=O)c3cccc(C(=O)N4CCN(Cc5ccc(F)cc5)CC4)n3)CC2)cc1 (centres unmarked) : EC50 value = 5000 to 10000 nM

// N#Cc1ccc(CN2CCC(NC(=O)c3ccc(N4CCC(Oc5ccc(C#N)cc5)CC4)cn3)CC2)cc1 : EC50 value = < 500 nM

// O=C(NC1CCN(Cc2ccc(F)cc2)CC1)c1ccc(C(=O)N2CCC(C(=O)c3ccc(-n4cccn4)cc3)CC2)nc1 : EC50 value = < 500 nM

// O=C(NC1CCN(Cc2ccccc2)CC1)c1ccc(C(=O)N2CCN(Cc3ccccc3)CC2)nc1 : EC50 value = < 500 nM

// N#Cc1ccc(CN2CCC(NC(=O)c3ccc(C(=O)NC4CCN(c5ccc(C#N)cc5)CC4)cn3)CC2)cc1 : EC50 value = < 500 nM

###

Provide the reported pEC50 of each item.
- target_system: AMPK
- test_protocol: AMPK activation, enzyme-linked immunosorbent assay
- test_parameters: EC50 for AMPK activation, ELISA
pEC50: −log10 of the molar value.

Value sought: pEC50, system AMPK, item COc1ccc(C(=O)C2CCN(C(=O)c3ccc(C(=O)N[C@H]4CC[C@@H](Oc5ccc(C#N)c(F)c5)CC4)nc3)CC2)cc1 . Result: > 6.30

Value sought: pEC50, system AMPK, item COc1ccc(CN2CCC(NC(=O)c3ccc(C(=O)N4CCC(C(=O)c5ccc(N6CCCC6)cc5)CC4)nc3)CC2)cc1F . Result: > 6.30

Value sought: pEC50, system AMPK, item CC(=O)c1ccc(Oc2ccc(NC(=O)c3ccc(C(=O)N4CCN(c5ccc(S(C)(=O)=O)cc5)CC4)nc3)cn2)cc1 . Result: 5.30 to 6.00

Value sought: pEC50, system AMPK, item CCOC(=O)c1ccc(OC2CCN(C(=O)c3ccc(C(=O)NC4CCN(Cc5ccc(C#N)cc5)CC4)nc3)CC2)cc1 . Result: > 6.30

Value sought: pEC50, system AMPK, item COc1ccc(C(=O)C2CCN(C(=O)c3ccc(C(=O)N[C@H]4CC[C@@H](Oc5ccc(F)cc5)CC4)cn3)CC2)cc1 . Result: > 6.30

Value sought: pEC50, system AMPK, item N#Cc1ccc(CN2CCC(NC(=O)c3ccc(C(=O)N4CCC(Oc5ccc(S(=O)(=O)C(F)(F)F)cc5)CC4)nc3)CC2)cc1 . Result: > 6.30

###

- target_system: AMPK
- test_protocol: AMPK activation, enzyme-linked immunosorbent assay
- test_parameters: EC50 for AMPK activation, ELISA
Provide the reported EC50 of each item.

// CS(=O)(=O)Nc1ccc(OC2CCN(C(=O)c3ccc(C(=O)NC4CCN(Cc5ccc(C#N)cc5)CC4)cn3)CC2)cc1 [Compound 367] : EC50 value = > 10 µM

// COc1ccc(C(=O)C2CCN(C(=O)c3ccc(C(=O)NC4CCN(Cc5ccc(C(=O)N(C)C)cc5)CC4)cn3)CC2)cc1 [Compound 490] : EC50 value = 1 to 5 µM

// CCOC(=O)C(c1ccccc1)N1CCC(NC(=O)c2ccc(C(=O)N3CCN(Cc4ccc(F)cc4)CC3)cn2)CC1 (stereo not shown) [Compound 98] : EC50 value = 1 to 5 µM

// CS(=O)(=O)c1ccc(OC2CCN(C(=O)c3ccc(C(=O)NC4CCN(Cc5ccc(N6CCCC6)cc5)CC4)cn3)CC2)cc1 [Compound 230] : EC50 value = 0.5 to 1 µM

// COc1ccc(N2CCC(Nc3ccc(C(=O)NC4CCN(Cc5ccc(C#N)cc5)CC4)nc3)CC2)cc1 [Compound 275] : EC50 value = < 0.5 µM

// N#Cc1ccc(CN2CCC(NC(=O)c3ccc(C(=O)Nc4cccc(Cc5ccccc5)c4)cn3)CC2)cc1 [Compound 5] : EC50 value = 0.5 to 1 µM

// O=C(NC1CCN(Cc2ccc(OC(F)(F)F)cc2)CC1)c1ccc(C(=O)N2CCC(Oc3ccc(C(=O)C4CC4)cc3)CC2)nc1 [Compound 455] : EC50 value = < 0.5 µM

###

- target_system: AMPK
- test_protocol: AMPK activation, enzyme-linked immunosorbent assay
- test_parameters: EC50 for AMPK activation, ELISA
pEC50: −log10 of the molar value.
Provide the reported pEC50 of each item.

// CN(C)c1ccc(OC2CCN(C(=O)c3ccc(C(=O)NC4CCN(Cc5ccc(C#N)cc5)CC4)cn3)CC2)cc1 : pEC50 value = > 6.30

// COc1ccc(C(=O)C2CCN(C(=O)c3ccc(C(=O)N[C@@H]4CCN(Cc5csc(C)n5)C[C@@H]4F)cn3)CC2)cc1 : pEC50 value = 5.30 to 6.00

// N#Cc1ccc(CN2CCC(NC(=O)c3ccc(C(=O)N4CCC(Oc5ccc(C#N)cc5)CC4)cn3)CC2)cc1 : pEC50 value = > 6.30

// COc1ccc(C(=O)C2CCN(C(=O)c3ccc(C(=O)Nc4ccc(Oc5ccc(C(C)=O)cc5)nc4)cn3)CC2)cc1 : pEC50 value = > 6.30

// COc1ccc(CN2CCC(NC(=O)c3ccc(C(=O)N4CCC(Oc5ccc(F)cc5F)CC4)nc3)CC2)cc1 : pEC50 value = > 6.30

// CS(=O)(=O)c1ccc(CN2CCC(NC(=O)c3ccc(C(=O)N4CCC(Oc5ccc(C#N)cc5)CC4)nc3)CC2)cc1 : pEC50 value = < 5.00

// N#Cc1ccc(CN2CCC(NC(=O)c3ccc(C(=O)N4CCC(Oc5ccc(N)cc5)CC4)nc3)CC2)cc1 : pEC50 value = > 6.30

// N#Cc1ccc(CN2CCC(NC(=O)c3ccc(C(=O)N4CCN(c5ccc(C#N)cc5)CC4)cn3)CC2)cc1 : pEC50 value = > 6.30

// N#Cc1ccc(C(=O)N2CCC(NC(=O)c3ccc(C(=O)N4CCN(Cc5ccc(F)cc5)CC4)cn3)CC2)cc1 : pEC50 value = 6.00 to 6.30

// CS(=O)(=O)c1ccc(C(=O)C2CCN(C(=O)c3ccc(C(=O)NC4CCN(Cc5ccc(N6CCCC6)cc5)CC4)nc3)CC2)cc1 : pEC50 value = > 6.30

// CC(=O)Nc1cccc(OC2CCN(C(=O)c3ccc(C(=O)Nc4ccc(Oc5ccc(F)cc5)nc4)cn3)CC2)c1 : pEC50 value = 5.30 to 6.00

// CS(=O)(=O)c1ccc(OC2CCN(C(=O)c3ccc(C(=O)NC4CCN(Cc5ccc(N6CCCC6)cc5)CC4)nc3)CC2)cc1 : pEC50 value = > 6.30

// N#Cc1ccc(CN2CCC(NC(=O)c3ccc(C(=O)N4CCC(C(F)c5ccc(F)cc5)CC4)cn3)CC2)cc1 (centres unmarked) : pEC50 value = > 6.30

// O=C(NC1CCN(Cc2ccc(Cl)cc2)CC1)c1ccc(C(=O)N2CCN(Cc3ccc(F)cc3)CC2)cn1 : pEC50 value = > 6.30

These measurements were taken from patent US9663496B2.
